Attribute: pIC50
Test system: PANC-1. epithelioid carcinoma of the pancreas cell line bearing KRas^G12D oncogenic mutation
measurement.protocol: Antiproliferative MTS assay, PANC-1 cells
Format: cell-based
condition.notes: Homo sapiens, PANC-1, 72 h, compounds 1-23 and 47-52 median of experiments, 24-46 estimations and/or preliminary results, read-out: IC50 values: cell proliferation inhibition, Panc-1
pIC50: −log10 of the molar value.

compound: CCNC(=O)N1CCc2cc(OC)c(OCCc3ccc(OC)c(N)c3)cc2C1c1ccc(Cl)cc1C (stereo not shown) [Compound 13]
prefix.operator: =
pIC50: 6.52
//
compound: COc1ccc(CCOc2cc3c(cc2OC)CCN(C(=O)NCC(F)(F)F)C3c2ccc(C)cc2C)cc1N (stereo not shown) [Compound 24]
prefix.operator: =
pIC50: 6.70
//
compound: COc1cc2c(cc1OCCc1ccc(OC)c([N+](=O)[O-])c1)C(c1ccc(C)cc1C)N(C(=O)NCc1cocn1)CC2 (stereo not shown) [Compound 49]
prefix.operator: =
pIC50: 5.82
//
compound: CCNC(=O)N1CCc2cc(OC)c(OCCc3ccc(N)c(OC)c3)cc2C1c1ccc(OC)cc1C (stereo not shown) [Compound 30]
prefix.operator: =
pIC50: 6.30
//
compound: CCNC(=O)N1CCc2cc(OC)c(OCCc3ccc(OC)c([N+](=O)[O-])c3)cc2C1c1ccc(C)cc1C (stereo not shown) [Compound 8]
prefix.operator: =
pIC50: 6.70
//
compound: COc1cc(CCOc2cc3c(cc2OC)CCN(C(=O)NCc2ccon2)C3c2ccc(Cl)cc2C)ccc1N (stereo not shown) [Compound 42]
prefix.operator: =
pIC50: 6.52
//
compound: COc1ccc(CCOc2cc3c(cc2OC)CCN(C(=O)N[C@H](C)C(F)(F)F)C3c2ccc(C)cc2C)cc1N (stereo partly shown) [Compound 47]
prefix.operator: <
pIC50: 6.00
